Assay: Mouse blood and tumour pharmacokinetics in NCI-H441 tumour bearing mice
Details: female, BALB/c nude, mouse, whole blood, po, 10 mg/kg
MEASURED_PARAMETER: Cmax (ng/mL)
The answer is to be given in ng/mL; state only the numeric part.

input: Read off the recorded Cmax for CCn1c(-c2cc(N3CCN(C4CC4)CC3)cnc2[C@H](C)OC)c2c3cc(ccc31)-c1csc(n1)C[C@H](NC(=O)[C@H]1[C@@H]3COC[C@@H]31)C(=O)N1CCC[C@H](N1)C(=O)OCC(C)(C)C2
output: 1110

###

For each entry below, report its pKd value.
Note on pKd: it is the negative log10 of concentration, concentration in mol/L.

input: State measured pKd of the compound CCn1c(-c2cc(N3CCN(C4CC4)CC3)cnc2[C@H](C)OC)c2c3cc(ccc31)-c1csc(n1)C[C@H](NC(=O)[C@H]1[C@@H]3COC[C@@H]31)C(=O)N1CCC[C@H](N1)C(=O)OCC(C)(C)C2 with CYPA (Homo sapiens, UniProt P62937).
output: 6.71

input: State measured pKd of the compound CCn1c(-c2cccnc2[C@H](C)OC)c2c3cc(ccc31)-c1cccc(c1)C[C@H](NC(=O)[C@H](C(C)C)N(C)C(=O)[C@H]1CCN(C(C)=O)C1)C(=O)N1CCC[C@H](N1)C(=O)OCC(C)(C)C2 with CYPA (Homo sapiens, UniProt P62937).
output: 6.06

input: State measured pKd of the compound CCn1c(-c2cccnc2[C@H](C)OC)c2c3cc(ccc31)-c1csc(n1)C[C@H](NC(=O)[C@H](C(C)C)N(C)C(C)=O)C(=O)N1CCC[C@H](N1)C(=O)OCC(C)(C)C2 with CYPA (Homo sapiens, UniProt P62937).
output: 6.48

input: State measured pKd of the compound CCn1c(-c2cccnc2[C@H](C)OC)c2c3cc(ccc31)-c1csc(n1)C[C@H](NC(=O)[C@H]1CCO1)C(=O)N1CCC[C@H](N1)C(=O)OCC(C)(C)C2 with CYPA (Homo sapiens, UniProt P62937).
output: 5.20

input: State measured pKd of the compound CCn1c(-c2cc(N3CCN(C)CC3)cnc2[C@H](C)OC)c2c3cc(ccc31)-c1csc(n1)C[C@H](NC(=O)[C@H]1CCO1)C(=O)N1CCC[C@H](N1)C(=O)OCC(C)(C)C2 with CYPA (Homo sapiens, UniProt P62937).
output: 6.22
